Where do these numbers come from? They come from the supplement of paper PMC5919970.

Tested on: TYKNU
Experiment: fractional viability relative to vehicle; higher = less growth inhibition
Conditions: 2uM; 72 h; genotype: OPA1 knockout (sgOPA1 #2)
Over roughly 2,000 compounds, “fractional viability relative to vehicle” has its median near 0.92; the lowest 2% begin near 0.11. Many of the other results were omitted from the sample, so the lowest values are more common in it than they were.
We begin with a simple list: items and their reported fractional viability.
Hey, just send me the number, nothing else.

Worked examples follow.
- CN1CCN(c2nc3ccccc3nc2Cl)CC1: 1.15
- CC1=C(O)C(=O)C=C2C1=CC=C1[C@@]2(C)CC[C@@]2(C)[C@@H]3C[C@](C)(C(=O)O)CC[C@]3(C)CC[C@]12C: 0.123

get_value(item= `Cc1sc2c(c1C)C(c1ccc(Cl)cc1)=N[C@@H](CC(=O)Nc1ccc(O)cc1)c1nnc(C)n1-2` , readout=fractional viability) returns 0.634

Summary for this compound, `C[C@@H]1CC[C@@]2(OC1)O[C@H]1C[C@H]3[C@@H]4CC=C5C[C@@H](O[C@@H]6O[C@H](CO)[C@@H](O[C@@H]7O[C@@H](C)[C@H](O)[C@@H](O)[C@H]7O)[C@H](O)[C@H]6O[C@@H]6O[C@@H](C)[C@H](O)[C@@H](O)[C@H]6O)CC[C@]5(C)[C@H]4CC[C@]3(C)[C@H]1[C@@H]2C` : fractional viability is 0.289

---

Tested on: TYKNU
Test: fractional viability relative to vehicle; higher = less growth inhibition
Details: 10uM; 72 h; genotype: OPA1 knockout (sgOPA1 #2)
Counter-ions that a name gives are not always drawn. The full ranking holds about 2,000 compounds; the median of “fractional viability relative to vehicle” is about 0.92, and the lowest 2% start at about 0.11. The full list was thinned out, with the lowest values kept by preference.
propertyName: fractional viability

Past entries and their recorded results:
* C[C@H]1CNCCc2ccc(Cl)cc21 [Lorcaserin HCl] | 1.02
* C[N+]1(C)[C@@H]2C[C@@H](OC(=O)[C@H](CO)c3ccccc3)C[C@H]1[C@@H]1O[C@@H]12 [Methscopolamine] | 0.966
* [O-][n+]1ccccc1[S-].[O-][n+]1ccccc1[S-].[Zn+2] [Zinc Pyrithione] | 0.0336
* C=CC[C@]1(O)CC[C@H]2[C@@H]3CCC4=CC(=O)CCC4=C3C=C[C@@]21C [Altrenogest] | 0.84
* COc1cc(OC)c(OC)cc1C=O [Asaraldehyde] | 1.15
* Cc1cc(SCc2sc(-c3ccc(C(F)(F)F)c(F)c3)nc2C)ccc1OCC(=O)O | 0.75
* CCN1CCN(C(=O)Cc2ccc(Nc3ncc(F)c(Nc4ccc(C(=O)Nc5ccccc5Cl)cc4)n3)cc2)CC1 [Aurora A Inhibitor I] | 0.0801
* Nc1nc(N)nc(NC2CC2)n1 [Cyromazine] | 0.994

In the following, a different compound is considered.
Measured fractional viability, `CN1CCN(c2nc3ccccc3nc2Cl)CC1` : 0.988

---

System: TYKNU
Assay: fractional viability relative to vehicle; higher = less growth inhibition
Settings: 10uM; 72 h; genotype: OPA1 knockout (sgOPA1 #2)
Structures can show the parent of a compound that is named as a salt. In all, about 2,000 compounds were measured (“fractional viability relative to vehicle”: median about 0.92, lowest 2% from about 0.11 on). Many of the other results were omitted from the sample, so the lowest values are more common in it than they were.
Examples of compounds with documented fractional viability follow.
Form: value (number only, do not type unit).

• CC[C@@H]1/C=C/C=C/C[C@H](C)[C@H](O)[C@](C)(O)C(=O)[C@H](C)[C@@H](O)[C@H](C)C(=O)[C@H](C)[C@@H](O)[C@H](C)/C=C/C(=O)O[C@H]2[C@@H](C)[C@@H](CC1)O[C@@]1(CC[C@@H](C)[C@@H](C[C@H](C)O)O1)[C@@H]2C = 0.871

So for Cc1cccc(C)c1NC1=NCCCS1 [Xylazine HCl] , the logged fractional viability turned out to be 0.79

Measured fractional viability, `CC(=O)Nc1ccc(OC[C@](C)(O)C(=O)Nc2ccc([N+](=O)[O-])c(C(F)(F)F)c2)cc1` : 1.18

Lookup result for `Cc1sc2c(c1C)C(c1ccc(Cl)cc1)=N[C@@H](CC(=O)Nc1ccc(O)cc1)c1nnc(C)n1-2` ; measured fractional viability: 0.619

Looking up `C[C@]12N[C@H](Cc3ccccc31)c1ccccc12` , I see its fractional viability listed as 0.956

fractional viability recorded for this compound, `CC1(C)CC(O)CC(C)(C)N1[O]` , is 1.06

// recorded fractional viability for COc1ccc(C(CN(C)C)C2(O)CCCCC2)cc1 (configuration not stated) : 1

According to the records, this compound O=C1CC[C@@]2(O)[C@H]3Cc4ccc(O)c5c4[C@@]2(CCN3CC2CC2)[C@H]1O5 [Naltrexone HCl] displays fractional viability of 1.12

The measured fractional viability associated with CCOc1ccccc1-n1c(C(C)N2CCN(C(=O)COc3ccc(Cl)cc3)CC2)nc2ccccc2c1=O (configuration not stated) reads 0.0976

get_value(item= `CCNC(=O)C[C@@H]1N=C(c2ccc(Cl)cc2)c2cc(OC)ccc2-n2c(C)nnc21` , readout=fractional viability) returns 0.794

Note to self: fractional viability recorded for `C[C@@H]1CC[C@@]2(OC1)O[C@H]1C[C@H]3[C@@H]4CC=C5C[C@@H](O[C@@H]6O[C@H](CO)[C@@H](O[C@@H]7O[C@@H](C)[C@H](O)[C@@H](O)[C@H]7O)[C@H](O)[C@H]6O[C@@H]6O[C@@H](C)[C@H](O)[C@@H](O)[C@H]6O)CC[C@]5(C)[C@H]4CC[C@]3(C)[C@H]1[C@@H]2C` was 0.0918

For record `C[C@H]1CCC/C=C/[C@@H]2C[C@H](O)C[C@H]2[C@H](O)/C=C/C(=O)O1` the listed fractional viability is 0.277

---

Tested on: TYKNU
Assay: fractional viability relative to vehicle; higher = less growth inhibition
Conditions: 10uM; 72 h; genotype: OPA1 knockout (sgOPA1 #2)
Over roughly 2,000 compounds, “fractional viability relative to vehicle” has its median near 0.92; the lowest 2% begin near 0.11. Only a selection was taken, and the lowest values are over-represented in it overall.
Please respond with Satisfied when measured fractional viability is strictly beneath 0.9, and with Not satisfied in all other cases.

- CC(=O)O[C@H]1C[C@@H]2CC[C@@H]3[C@H](CC[C@@]4(C)[C@H]3C[C@H]([N+]3(C)CCCCC3)[C@@H]4OC(C)=O)[C@@]2(C)C[C@@H]1[N+]1(C)CCCCC1 [Pancuronium dibromide]: Not satisfied
- O=C(O[C@H]1C[N+]2(CCCOc3ccccc3)CCC1CC2)C(O)(c1cccs1)c1cccs1 [Aclidinium Bromide]: Not satisfied
- O=[N+]([O-])/C=C/c1ccc2c(c1)OCO2: Satisfied
- CN[C@@H]1C[C@H]2O[C@@](C)([C@@H]1OC)n1c3ccccc3c3c4c(c5c6ccccc6n2c5c31)C(=O)NC4 [Staurosporine]: Satisfied

Next item in the queue.
A record lists `O=C(Oc1ccc([N+](=O)[O-])cc1)N1CCC(C(O)(c2ccc3c(c2)OCO3)c2ccc3c(c2)OCO3)CC1` . Is its fractional viability below 0.9?
Satisfied

---

Measured fractional viability of individual entries
System: TYKNU
Test: fractional viability relative to vehicle; higher = less growth inhibition
Conditions: 2uM; 72 h; genotype: OPA1 knockout (sgOPA1 #2)
Counter-ions that a name gives are not always drawn. The full ranking holds about 2,000 compounds; the median of “fractional viability relative to vehicle” is about 0.92, and the lowest 2% start at about 0.11. The entries come from a sample that favours the lowest values as a whole.
# answer = number (no unit)

* CN1CCC(c2c[nH]c3ccc(O)cc23)CC1 | 0.838

Considering C=CC[C@]1(O)CC[C@H]2[C@@H]3CCC4=CC(=O)CCC4=C3C=C[C@@]21C [Altrenogest] , its fractional viability with TYKNU was recorded as 0.97

Bench note, TYKNU: [O-][n+]1ccccc1[S-].[O-][n+]1ccccc1[S-].[Zn+2] [Zinc Pyrithione] , fractional viability reads 0.0671

The value of fractional viability recorded for CC(=O)Nc1ccc(OC[C@](C)(O)C(=O)Nc2ccc([N+](=O)[O-])c(C(F)(F)F)c2)cc1 [Andarine] when tested on TYKNU reads 1.18

For `CCCN1CCO[C@@H]2c3cc(O)ccc3OC[C@H]21` on TYKNU, measured fractional viability was 0.95

Entry Cc1cccc(C)c1NC1=NCCCS1 [Xylazine HCl] : fractional viability on TYKNU = 0.823

---

Test system: TYKNU
Experiment: fractional viability relative to vehicle; TYKNU is a high-grade serous ovarian cancer line; higher = less growth inhibition
Conditions: 2uM; 72 h; genotype: OPA1 knockout (sgOPA1 #2)
Where a name gives a salt, the structure may show the parent alone. Whole data set: some 2,000 compounds, median “fractional viability relative to vehicle” near 0.92, cut for the lowest 2% near 0.11. The entries come from a sample that favours the lowest values as a whole.
This listing pairs compounds with measured fractional viability.
The response must contain the number and no unit.

The examples below pair each entry with its known result.
• CN1[C@@H]2CC(O)C[C@H]1[C@@H]1O[C@@H]12 (stereo not given in full) = 0.96
• C1=C2CCCN[C@H]2[C@@H]2C[C@H]1[C@H]1CCCCN1C2 = 1.02
• CN1[C@@H]2C[C@@H](OC(=O)[C@H](CO)c3ccccc3)C[C@H]1[C@@H]1O[C@@H]12 = 1.29

Noted for `CC1(C)CC(O)CC(C)(C)N1[O]` : its fractional viability reads 0.982

Just so you know, measured fractional viability for CCOc1ccccc1-n1c(C(C)N2CCN(C(=O)COc3ccc(Cl)cc3)CC2)nc2ccccc2c1=O (stereo not given) came out at 0.45

Summary for this compound, `CC[C@@H]1/C=C/C=C/C[C@H](C)[C@H](O)[C@](C)(O)C(=O)[C@H](C)[C@@H](O)[C@H](C)C(=O)[C@H](C)[C@@H](O)[C@H](C)/C=C/C(=O)O[C@H]2[C@@H](C)[C@@H](CC1)O[C@@]1(CC[C@@H](C)[C@@H](C[C@H](C)O)O1)[C@@H]2C` : fractional viability is 1.01

Record CCCN1C[C@H](CSC)C[C@@H]2c3cccc4[nH]cc(c34)C[C@H]21 [Pergolide mesylate] . Reported fractional viability: 0.978

// field: fractional viability; key: CC(=O)O[C@H]1C[C@@H]2CC[C@@H]3[C@H](CC[C@@]4(C)[C@H]3C[C@H]([N+]3(C)CCCCC3)[C@@H]4OC(C)=O)[C@@]2(C)C[C@@H]1[N+]1(C)CCCCC1 [Pancuronium dibromide] ; value = 1

The compound `C[C@H]1CCC/C=C/[C@@H]2C[C@H](O)C[C@H]2[C@H](O)/C=C/C(=O)O1` showed fractional viability equal to 0.269

Quick note, fractional viability for `O=C(Oc1ccc([N+](=O)[O-])cc1)N1CCC(C(O)(c2ccc3c(c2)OCO3)c2ccc3c(c2)OCO3)CC1` landed at 0.994
